Target: T1, human IL-3Rα (CD123), cell-expressed (human, UniProt P26951 19-378)
T1 construct: whole, on cells; also called IL-3Ra; Hek-IL-3Rα
T1 sequence (P26951 19-378): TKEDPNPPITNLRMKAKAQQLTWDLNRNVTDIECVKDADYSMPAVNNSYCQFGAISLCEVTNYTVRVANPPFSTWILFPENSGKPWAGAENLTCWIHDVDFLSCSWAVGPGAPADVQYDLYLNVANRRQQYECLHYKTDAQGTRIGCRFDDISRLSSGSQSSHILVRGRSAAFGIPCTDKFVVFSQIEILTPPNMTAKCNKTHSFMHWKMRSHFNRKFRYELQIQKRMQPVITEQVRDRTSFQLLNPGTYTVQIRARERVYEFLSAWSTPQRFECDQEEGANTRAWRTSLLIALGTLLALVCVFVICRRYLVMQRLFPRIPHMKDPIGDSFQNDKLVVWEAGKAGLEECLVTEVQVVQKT
Test: FACS, MOLM-13 cells
measured-parameter: log10 EC50 (log10 of the value in nM)

• 55B04 (VHH) VHH: EVQLVESGGGLVQPGGSLRLSCAASGINFRFNSMGWWRRRAPGKEREWVAAITSGDITNYRDSVRGRFTISRDNVKNTVYLQMNTLKLEDTAVYYCNTFPPIADYWGLGTQVTVSS = 1.71
• 55C05 (VHH) VHH: EVQLVESGGGLVPAGDSLRLSCVASGRSLNTYTMGWFRQAPGKECEFVAAINWNGVYRDYADSAKGRFTASRDNAMNTVFLQMNSLKPEDTAVYFCATATQGWDRHTEPSDFGSWGLGTQVTVSS = 1.49
• 55A01 (VHH, also called CD123#2; A0110055A01) VHH: EVQLVESGGGSVQAGGSLRLSCTTSGRALNMYVMGWFRQAPGNEREFVAATSSSGGSTSYPDSVKGRFTISRDNAKNTVYLQMNSLKPEDTAAYRCAASPYVSTPTMNILEEYRYWGLGTQVTVSS = 0.91
• 50F07 (VHH) VHH: EVQLVESGGGLVQPGGSLRLSCTGSGSTFSINAMGWYRQAPGKQRELVAAITSGGRTNYADSVKGRFTISRDNSKNTVYLQMNSLRPEDTAVYYCNARISAGTAFWLWSDYEYWGLGTLVTVSS = 1.16
• 57A07 (VHH, also called CD123#1; A0110057A07) VHH: EVQLVESGGGLVQAGGSLRLSCAASGSIFSGNVMGWYRRQAPGKEREWVAAIASGGSIYYRDSVKGRFTISRDNAKNTVYLQMNSLKPEDTAVYYCNSHPPTLPYWGLGTQVTVSS = -0.18
• 55F03 (VHH) VHH: EVQLVESGGGLVQAGGPLRLSCAASGRTFSSYVMGWFRQAPGKEREFVAAIYWSNGKTQYTDSVKGRFTISGDNAKNTVYLQMNSLNPEDTAVYYCVADKDETGFRTLPIAYDYWGLGTQVTVSS = 2.05
• 51D09 (VHH) VHH: EVQLVESGGGLVQPGGSLRLSCAASGSIFSGNTMGWYRQAPGKQRELVAAISSGGSTDYADSVKGRFTISRDNSKNTVYLQMNSLRPEDTAVYYCNAAILLYRLYGYEEGDYWGLGTLVTVSS = 1.18
